target: GluA1 (Homo sapiens); construct: expressed in transfected cells; host or cells: HEK293T; test: Whole-cell patch-clamp recordings of homomeric GluA1 AMPAR in transfected HEK293T cells; format: cell-based; details: GluA1; Table S6, peak current amplitudes, 8-10 cells, GraphPad Prism fit; read-out: IC50
Sequence (P42261 19-906 isoform P42261-2 limits assumed, species assumed): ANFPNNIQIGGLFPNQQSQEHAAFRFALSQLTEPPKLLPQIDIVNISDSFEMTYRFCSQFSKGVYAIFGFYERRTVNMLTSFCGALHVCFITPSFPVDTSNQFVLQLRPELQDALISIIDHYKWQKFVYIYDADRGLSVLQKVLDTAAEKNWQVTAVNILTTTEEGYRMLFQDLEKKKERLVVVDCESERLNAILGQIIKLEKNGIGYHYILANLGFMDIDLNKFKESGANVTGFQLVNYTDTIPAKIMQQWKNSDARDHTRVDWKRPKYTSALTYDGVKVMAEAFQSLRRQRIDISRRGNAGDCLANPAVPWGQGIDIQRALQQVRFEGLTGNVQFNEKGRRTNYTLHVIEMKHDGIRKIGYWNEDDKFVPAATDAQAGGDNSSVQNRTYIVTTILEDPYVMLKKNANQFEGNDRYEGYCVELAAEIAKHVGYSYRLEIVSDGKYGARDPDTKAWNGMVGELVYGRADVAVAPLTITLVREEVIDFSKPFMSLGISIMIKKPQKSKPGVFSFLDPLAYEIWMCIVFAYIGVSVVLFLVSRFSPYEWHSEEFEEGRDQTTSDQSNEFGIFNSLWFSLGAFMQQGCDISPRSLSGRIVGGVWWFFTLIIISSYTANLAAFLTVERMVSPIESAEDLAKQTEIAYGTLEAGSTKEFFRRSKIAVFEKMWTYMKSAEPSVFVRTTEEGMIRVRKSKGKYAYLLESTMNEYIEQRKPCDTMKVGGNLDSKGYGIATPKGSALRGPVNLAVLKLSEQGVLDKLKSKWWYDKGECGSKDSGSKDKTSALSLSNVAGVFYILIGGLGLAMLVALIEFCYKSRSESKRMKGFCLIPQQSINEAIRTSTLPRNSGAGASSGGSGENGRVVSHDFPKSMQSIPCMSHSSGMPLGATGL
Please respond with reported pIC50 for every item in the list.
Scale: negative log10 of molar concentration, which is what pIC50 denotes.

Consider the compound COc1ccc(-c2nc(C(=O)Nc3cc(OC)ccc3OC)cs2)cc1 [TC-5] and give its measured pIC50. 5.45

Consider the compound COc1ccc(-c2nc(C(=O)Nc3ccc(C(C)(C)C)cc3)cs2)cc1 [TC-4] and give its measured pIC50. 5.23

Consider the compound COc1ccc(-c2nc(C(=O)Nc3ccc(OC)c(OC)c3)cs2)cc1 [TC-1] and give its measured pIC50. 5.47

Consider the compound COc1ccc(-c2nc(C(=O)Nc3ccccc3)cs2)cc1 [TC-3] and give its measured pIC50. 5.24
